Record form. Attribute: selectivity ratio. Fill in for each entry.
Assay: Selectivity index, ratio of IC50 for HEK293 cells to IC50 for human MS cells
Assay type: toxicity
Settings: HEK293 cells versus MS cells, read-out: Ratio IC50

Ask | Using the record for C=C(C=O)[C@@H]1CC[C@]2(C(=O)OC)CC[C@]3(C)[C@H](CC[C@@H]4[C@@](C)(CC#N)[C@H](C(C)(C)C(=O)COC(C)=O)CC[C@]43C)[C@@H]12 , state its measured selectivity ratio.
Reply | 2.42 to 9.61

Ask | Using the record for C=C(C=O)[C@@H]1CC[C@]2(C(=O)OC)CC[C@]3(C)[C@H](CC[C@@H]4[C@]5(C)[C@@H](CC[C@]43C)C(C)(C)[C@@](O)(CO)[C@H]5C#N)[C@@H]12 , state its measured selectivity ratio.
Reply | 4.08 to 20.2

Ask | Using the record for C=C(C=O)[C@@H]1CC[C@]2(C(=O)OC)CC[C@]3(C)[C@H](CC[C@@H]4[C@@](C)(CC#N)[C@H](C(C)(C)C(=O)COC(=O)/C=C/c5ccccc5)CC[C@]43C)[C@@H]12 , state its measured selectivity ratio.
Reply | 1.84 to 50.3

Ask | Using the record for C=C(C=O)[C@@H]1CC[C@]2(C(=O)OC)CC[C@]3(C)[C@H](CC[C@@H]4[C@@](C)(CC#N)[C@H](C(C)(C)C(=O)COC(=O)c5ccccc5OC(C)=O)CC[C@]43C)[C@@H]12 , state its measured selectivity ratio.
Reply | 1.08 to 22.5

Ask | Using the record for CC[C@@]1(O)C(=O)OCc2c1cc1n(c2=O)Cc2cc3ccccc3nc2-1 , state its measured selectivity ratio.
Reply | 0.53 to 40.2

Ask | Using the record for C=C(C=O)[C@@H]1CC[C@]2(C(=O)OC)CC[C@]3(C)[C@H](CC[C@@H]4[C@@](C)(CC#N)[C@H](C(C)(C)C(=O)COC(=O)c5cccnc5)CC[C@]43C)[C@@H]12 , state its measured selectivity ratio.
Reply | 1.47 to 8.45
